Assay Explanation: solvent given as SMILES
Assay Conditions: in CCO
Quantity Measured: emission maximum (nm)
One number for each entry, in nm.

Worked cases, answers included:
[
  {
    "Molecular String": "CN(C)CCNc1ccc([N+](=O)[O-])cc1[N+](=O)[O-]",
    "Quantity Measured": "emission maximum",
    "Unit String": "nm",
    "Meas Value": 394
  },
  {
    "Molecular String": "CC1(C)CC(=O)c2cc(F)c(F)cc2N1",
    "Quantity Measured": "emission maximum",
    "Unit String": "nm",
    "Meas Value": 472
  }
]

Moving on to another compound below.
Q: I would be grateful if you could share the reported emission maximum for CCOC(=O)c1sc(SC)c2c(=O)n(C)nnc12 .
Ans: 501

* * *

Assay Explanation: solvent given as SMILES
Assay Conditions: in CO
Quantity Measured: emission maximum (nm)
Numbers only, in nm.

[
  {
    "Compound": "Oc1cccc(-c2nc(-c3ccccc3)c(-c3ccccc3)[nH]2)c1",
    "emission maximum, nm": 390
  },
  {
    "Compound": "c1ccc(-c2nc(-c3ccc(-c4nc(-c5ccccc5)c(-c5ccccc5)[nH]4)cc3)[nH]c2-c2ccccc2)cc1",
    "emission maximum, nm": 417
  }
]

Hey, can you go through the list below and give me emission maximum for every item?
1. C(C1=[NH+]c2cccc3cccc1c23)=c1[nH]c2cccc3cccc1c32
2. CCCCCCN(CCCCCC)c1ccc(C#Cc2ccc(C#N)cc2)cc1
3. CCC1=C(C)C2=C(C)c3cc(I)c(I)n3[B-](F)(F)[N+]2=C1C
4. CC1(C)C(/C=C/C=C/C=C/C=C2/N(S(=O)(=O)[O-])c3ccc(S(=O)(=O)[O-])cc3C2(C)C)=[N+](S(=O)(=O)[O-])c2ccc(S(=O)(=O)[O-])cc21
5. O=c1[nH]c(=O)n([C@@H]2O[C@H](CO)[C@@H](O)[C@H]2O)cc1-c1cc2ccccc2s1
6. COc1ccc(O)c(-c2[nH]c(=O)n3c2-c2ccccc2C3=O)c1
7. Cc1nc2c(ccc3c2sc(/C=C/c2ccc(-n4c5ccccc5c5ccccc54)cc2)[n+]3C)s1
8. CCCCC1=Cc2c3ccc4cccc5ccc(c6cc(-c7ccccc7)n(c26)P1(=O)c1ccccc1)c3c45 (stereo unspecified)

Ans:
1. 617
2. 514
3. 546
4. 776
5. 446
6. 500
7. 607
8. 459

Q: I would be grateful if you could share the reported emission maximum for Cc1ccc(C(=O)/C=C/c2ccc(N(C)C)cc2)cc1 .
Ans: 533

* * *

Assay Explanation: solvent given as SMILES
Assay Conditions: in CCOC(C)=O
Respond with true (1) for emission maximum values of 500 nm and above, false (0) for values below.

[
  {
    "Molecular String": "Cc1ccccc1C1=C2C=c3c(oc4ccc(C(C)(C)C)cc34)=[N+]2[B-](F)(F)n2c1cc1c3cc(C(C)(C)C)ccc3oc12",
    "Class Assignment": "true (1)"
  }
]

Turning to the following molecule.
Q: Can c1ccc2cc(-n3c4ccccc4c4ccccc43)ccc2c1 be said to have emission maximum at or above 500 nm?
Ans: false (0)

* * *

Could you please report measured emission maximum for the items listed next?
Assay Explanation: solvent given as SMILES
Assay Conditions: in CO
Answer with the figure and its unit, nothing else.

Hey, can you go through the list below and give me emission maximum for every item?
1. CCN1C(=CC=Cc2n(CC)c3cc(Cl)c(Cl)cc3[n+]2CC)N(CC)c2cc(Cl)c(Cl)cc21
2. Cc1nc2c(ccc3c2sc(/C=C/C=C/c2ccc(N(C)C)cc2)[n+]3C)s1
3. COC(=O)C1=C(C(=O)OC)C2=C[C@H]3c4ccccc4[C@]2(S1)c1ccccc13
4. CN(C)C(=O)c1ccc(-c2nc3ccc(N(C)C)cc3s2)cc1
5. COC(=O)COc1ccc(/C=C/C2=[N+]3C(=C(c4ccc(N5CCCCC5)cc4)c4c(C)cc(C)n4[B-]3(F)F)C(C)=C2)cc1
6. CCN(CC)c1ccc2cc(/C=C(\C#N)c3nc4ccccc4s3)c(=O)oc2c1

Ans:
1: 528 nm; 2: 700 nm; 3: 500 nm; 4: 543 nm; 5: 581 nm; 6: 598 nm

Hey, can you go through the list below and give me emission maximum for every item?
1. O=C(O)c1ccc(-c2nc(-c3ccccc3)c(-c3ccccc3)[nH]2)cc1
2. CC1(C)C(/C=C/C2=C(c3ccc(C(=O)O)cc3)C(=C/C=C3/N(CCCCS(=O)(=O)[O-])c4ccccc4C3(C)C)/CC2)=[N+](CCCCS(=O)(=O)[O-])c2ccccc21

Ans:
1: 414.5 nm; 2: 816 nm

Hey, can you go through the list below and give me emission maximum for every item?
1. N#Cc1cccc2cc[nH]c12
2. COc1ccc(-c2nc(-c3ccc(OC)cc3)c(-c3ccc(OC)cc3)[nH]2)cc1

Ans:
387 nm
389 nm

* * *

Assay Explanation: solvent given as SMILES
Assay Conditions: in ClCCl
Quantity Measured: emission maximum (nm)
Give bare numbers, in nm.

Worked cases, answers included:
[
  {
    "Molecular String": "COc1cccc(/C=C/C(=O)c2c(O)cc(C)oc2=O)c1",
    "Unit String": "nm",
    "Meas Value": 490
  },
  {
    "Molecular String": "COc1cc(OC)cc(-c2ccc(C3=CC(c4ccccc4)=C(c4ccccc4)C3)cc2)c1",
    "Unit String": "nm",
    "Meas Value": 455
  }
]

Hey, can you go through the list below and give me emission maximum for every item?
1. COc1cc2c(cc1OC)C1=C[C@H](c3ccc(C)cc3)C3(C(C#N)=C(C#N)N1CC2)c1cc(Cl)ccc1-c1ccc(Cl)cc13
2. COc1ccc(C2=C3C(/C=C/c4cc(OC)c(OC)c(OC)c4)=C(C=O)C(/C=C/c4cc(OC)c(OC)c(OC)c4)=[N+]3[B-](F)(F)n3c(/C=C/c4cc(OC)c(OC)c(OC)c4)c(C=O)c(C=Cc4cc(OC)c(OC)c(OC)c4)c32)cc1
3. CCCCN1c2ccccc2Sc2cc(/C=C/C3=Nc4ccc5ccccc5c4C3(C)C)ccc21
4. COc1ccc(C2=C3C(/C=C/c4cc(OC)c(OC)c(OC)c4)=C(C=O)C(C)=[N+]3[B-](F)(F)n3c(/C=C/c4cc(OC)c(OC)c(OC)c4)c(C=O)c(C=Cc4cc(OC)c(OC)c(OC)c4)c32)cc1

Ans:
[402, 722, 595, 686]

* * *

Assay Explanation: solvent given as SMILES
Assay Conditions: in C1CCCCC1
Quantity Measured: emission maximum (nm)
Give bare numbers, in nm.

Worked cases, answers included:
[
  {
    "Compound": "COC(=O)c1noc(-c2ccccc2)c1Cl",
    "emission maximum (nm)": 344
  },
  {
    "Compound": "CC1=C(C(C)(C)C)C(C)=[N+]2C1=C(C)c1c(C)c(C(C)(C)C)c(C)n1[B-]2(F)F",
    "emission maximum (nm)": 571.2
  },
  {
    "Compound": "N#Cc1cc2nc3c(nc2cc1C#N)C1c2ccc(N(c4ccccc4)c4ccccc4)cc2C3c2ccc(N(c3ccccc3)c3ccccc3)cc21",
    "emission maximum (nm)": 487
  },
  {
    "Compound": "CC1(C)Oc2c(c3nc4ccccc4nc3c3ccccc23)CC1Br (configuration not stated)",
    "emission maximum (nm)": 431.03
  },
  {
    "Compound": "Cc1ccc(C2=C3C=CC(c4ccccc4)=[N+]3[B-](F)(F)n3c2ccc3-c2ccccc2)cc1",
    "emission maximum (nm)": 585
  },
  {
    "Compound": "CN(C)c1ccc(C(=O)Nc2ccc([N+](=O)[O-])cc2)cc1",
    "emission maximum (nm)": 360
  }
]

Q: I would be grateful if you could share the reported emission maximum for CCCCCCOc1ccc(-c2cnc(-c3nnc(-c4ccc(OCCCCCC)cc4)o3)o2)cc1 .
Ans: 370

* * *

Assay Explanation: solvent given as SMILES
Assay Conditions: in ClCCl
Quantity Measured: emission maximum
Answer with the figure and its unit, nothing else.

Worked cases, answers included:
[
  {
    "Molecular String": "COc1cc2c(cc1/C=C(\\C#N)c1nc3ccccc3s1)c1ccccc1n2C",
    "Meas Value": "501 nm"
  },
  {
    "Molecular String": "COc1c2ccccc2c(OC)c2c1c1cccc(OC)c1n2C",
    "Meas Value": "431 nm"
  },
  {
    "Molecular String": "COc1ccc(O)c(-c2[nH]c(=O)n3c2-c2ccccc2C3=O)c1",
    "Meas Value": "481 nm"
  },
  {
    "Molecular String": "COc1ccc(-c2c3ccccc3c(C#Cc3ccccc3)c3ccccc23)cc1",
    "Meas Value": "452 nm"
  },
  {
    "Molecular String": "c1ccc(-c2c3ccccc3nc3cc4ccccc4cc23)cc1",
    "Meas Value": "525 nm"
  }
]

Hey, can you go through the list below and give me emission maximum for every item?
1. C(=C\c1cc(/C=C/c2ccc(N(c3ccccc3)c3ccccc3)cc2)ncn1)/c1ccc(N(c2ccccc2)c2ccccc2)cc1
2. CN(C)c1ccc(/C=C/c2ccncn2)cc1
3. CCn1c2ccccc2c2cc(C#Cc3cc(C#Cc4ccc5c(c4)c4ccccc4n5CC)nc(N4CCCCC4)n3)ccc21
4. CCN(CC)c1ccc2c(-c3ccccc3C(=O)O)c3c([o+]c2c1)/C(=C/c1nc(C)n2ccccc12)CCC3

Ans:
540 nm
488 nm
450 nm
735 nm

The origin of these recorded values is the Deep4Chem optical property database.
